# test-system: FGFR3 enzyme (Millipore) (Homo sapiens, UniProt P22607)
# Construct: purchased Millipore
# Sequence (P22607 23-806): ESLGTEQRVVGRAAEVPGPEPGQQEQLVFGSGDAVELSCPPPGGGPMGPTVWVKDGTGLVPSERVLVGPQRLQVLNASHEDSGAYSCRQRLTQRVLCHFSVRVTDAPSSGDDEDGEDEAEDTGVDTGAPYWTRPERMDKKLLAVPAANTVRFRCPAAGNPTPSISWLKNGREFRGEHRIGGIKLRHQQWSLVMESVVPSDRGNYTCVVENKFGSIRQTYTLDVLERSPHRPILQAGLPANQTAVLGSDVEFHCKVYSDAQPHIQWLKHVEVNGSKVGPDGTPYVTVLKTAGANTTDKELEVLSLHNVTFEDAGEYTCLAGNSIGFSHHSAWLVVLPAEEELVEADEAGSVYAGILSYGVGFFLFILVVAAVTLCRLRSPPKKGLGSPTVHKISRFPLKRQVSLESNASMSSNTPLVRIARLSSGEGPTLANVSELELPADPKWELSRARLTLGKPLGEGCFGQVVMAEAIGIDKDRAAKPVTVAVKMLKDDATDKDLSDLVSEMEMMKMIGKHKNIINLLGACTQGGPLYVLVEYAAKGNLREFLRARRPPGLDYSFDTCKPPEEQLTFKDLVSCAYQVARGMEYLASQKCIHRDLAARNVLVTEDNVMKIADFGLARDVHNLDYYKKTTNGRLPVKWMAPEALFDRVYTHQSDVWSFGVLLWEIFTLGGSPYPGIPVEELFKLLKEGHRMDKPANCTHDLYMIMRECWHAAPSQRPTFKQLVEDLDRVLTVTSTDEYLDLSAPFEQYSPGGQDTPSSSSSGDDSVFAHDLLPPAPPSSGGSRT
# assay-procedure: FGFR Enzymatic Assay (peptide phosphorylation, FRET)
# Assay type: biochemical
# details: pre-incubated for 4 hours; ATP 140 μM, peptide 500 nM
Entries and their measured IC50 follow.

# example entries with known answers
# compound, IC50
data = [
    ("Cc1cccc(F)c1NC(=O)c1cc2c(-c3cnn(C)c3)n[nH]c2cc1Cl", "≥ 200 nM"),
    ("COc1cc2[nH]nc(-c3cnn(C)c3)c2cc1C(=O)Nc1c(C)cc(C#N)cc1C", "10 to 30 nM"),
    ("CCc1cccc(CC)c1NC(=O)c1cc2c(-c3cnn(C)c3)n[nH]c2cc1OC", "< 10 nM"),
]

GET /values?readout=IC50&item= "COc1cc2[nH]nc(-c3cnn(C)c3)c2cc1C(=O)Nc1c(C)cccc1C"
< 10 nM

Need IC50 of "CCNC(=O)Cn1cc(-c2n[nH]c3cc(OC)c(C(=O)Nc4c(C)cccc4C)cc23)cn1" , thanks.
10 to 30 nM

Sample "CCOC(=O)N1CC(n2cc(-c3n[nH]c4cc(OC)c(C(=O)Nc5c(C)cccc5C)cc34)cn2)C1" — what was its IC50?
< 10 nM

Given the entry COc1cc2[nH]nc(-c3cnn(C4CCOC4)c3)c2cc1C(=O)Nc1c(C)cccc1C (centres unmarked) , report its measured IC50.
< 10 nM

// IC50 lookup, key: "Cc1cc2[nH]nc(-c3cnn(C)c3)c2cc1C(=O)Nc1c(C)cccc1C"
≥ 200 nM
